# Measurement Target: Lp-PLA2 (Homo sapiens, UniProt Q13093)
# Construct: aliquoted and thawed 40 μL of pooled human plasma was previously added; from tissue; host or cells: pooled human plasma
# Sequence (Q13093 22-441): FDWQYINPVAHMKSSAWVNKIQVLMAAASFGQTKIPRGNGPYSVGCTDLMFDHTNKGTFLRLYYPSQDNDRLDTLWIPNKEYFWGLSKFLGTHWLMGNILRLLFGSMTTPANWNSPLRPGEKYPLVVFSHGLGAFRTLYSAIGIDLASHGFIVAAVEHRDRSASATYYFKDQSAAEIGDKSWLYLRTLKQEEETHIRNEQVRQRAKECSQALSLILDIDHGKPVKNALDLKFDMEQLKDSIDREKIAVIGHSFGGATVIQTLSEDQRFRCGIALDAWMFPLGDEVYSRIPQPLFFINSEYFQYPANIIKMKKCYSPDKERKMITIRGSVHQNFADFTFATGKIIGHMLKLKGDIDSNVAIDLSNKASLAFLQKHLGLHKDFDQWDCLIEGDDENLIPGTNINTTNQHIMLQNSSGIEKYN
# Assay: Lipoprotein-associated phospholipase A2 (Lp-PLA2) human plasma assay (Thio-PAF assay)
# Assay type: biochemical
# Test Settings: Comparison of activity data (I); pooled human plasma, 2-thio-PAF substrate, 30-min pre-incubation
pIC50: −log10 of the molar value.
Parameter Measured: pIC50

Molecule	Measurement Target	Parameter Measured	Readout Number
CC12COCCN1c1cc(OCc3cc(F)c(F)c(F)c3)nc(=O)n1C2 (stereo not shown)	Lp-PLA2 (Homo sapiens, UniProt Q13093)	pIC50	8.21
O=c1nc(OCc2cc(F)c(F)c(F)c2)cc2n1C[C@@H]1COCCN21 [Example 123 in WO2016011930A1, reference compound]	Lp-PLA2 (Homo sapiens, UniProt Q13093)	pIC50	7.12
O=c1nc(OCc2cc(F)c(F)c(F)c2)cc2n1CC13CCC(CC1)N23	Lp-PLA2 (Homo sapiens, UniProt Q13093)	pIC50	7.80
O=c1nc(OCc2cc(F)c(F)c(F)c2)cc2n1CC1COCCN21 (racemic) [Corresponding racemate of Example 123 in WO2016011930A1, reference compound]	Lp-PLA2 (Homo sapiens, UniProt Q13093)	pIC50	7.20
